Known GI50 of a selection of molecules
- Tested on: SF-539 CNS
- MEASUREMENT_NOTES: NCI tumour cell line growth inhibition, 48 h
ASSAY_READOUT: GI50

1. CN(C)c1ncnc2c1ccn2C1OC(CO)C(O)C1O (stereo not given)	> 33.5 µM
2. O=C1c2ccn(CCCCN(CCO)CCO)c2C(=O)c2c1c(O)c1ccccc1c2O	7.88 µM
3. Cc1cc(Cl)ccc1Nc1nc(C(F)(F)F)ccc1C(=O)Nc1cccc(C(F)(F)F)c1	3.27 µM
4. O=C1C=C(OCCCl)C(=O)c2c(O)ccc(O)c21	1.58 µM
5. COc1cc2c(cc1OCCCCCn1c3ccccc3c3ccccc31)N=C[C@@H]1CCCN1C2=O	1.85 µM

The reported measurements were obtained from PubChem BioAssay (NCI).
